Source of measurements: PubChem BioAssay AID1963961

# Tested on: K98450-129-R-PDC multicell spheroids, viability
# procedure details: Anticancer human tumor K98450-129-R-PDC patient-derived colon adenocarcinoma cell line growth inhibition [PI3K]
# condition set: second compound 0.0316 µM; first compound 0.0316 µM; stronger effect = lower value
value type: viability, T/C (%)
Write the value in % as a bare number.

Examples from the recorded data:
compound | viability, T/C, %
C#Cc1c(F)ccc2cc(O)cc(-c3ncc4c(N5CC6CCC(C5)N6)nc(OCC56CCCN5CC(F)C6)nc4c3F)c12 (stereo not drawn) + COc1c(OCCCN2CCOCC2)ccc2c3n(c(=NC(=O)c4cnc(N)nc4)nc12)CCN3 | 91.6
CC1(C)CCC(Nc2ncc(C(F)(F)F)c(-c3c[nH]c4c(P(C)(C)=O)c(C#N)ccc34)n2)CN1 (stereo not drawn) + COc1c(OCCCN2CCOCC2)ccc2c3n(c(=NC(=O)c4cnc(N)nc4)nc12)CCN3 | 94.6

In the following, a different compound is considered.
viability, T/C measured on CNC(=O)c1ccc(N2C(=S)N(c3ccc(C#N)c(C(F)(F)F)c3)C(=O)C2(C)C)cc1F + Cc1nc(NC(=O)N2CCCC2C(N)=O)sc1-c1ccnc(C(C)(C)C(F)(F)F)c1 = 108

###

# maps each entry to its viability, T/C
# Test system: K98450-129-R-PDC multicell spheroids, viability
# procedure details: Anticancer human tumor K98450-129-R-PDC cell line growth inhibition [PI3K];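 further: spheroids exposed to agents for seven days before read-out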
# condition set: second compound 0.316 µM; first compound 0.000316 µM; stronger effect = lower value
# Text: Combinatorial screen of targeted agents with the PI3K inhibitors inavolisib, alpelisib, duvelisib, and copanlisib in multi-cell type tumor spheroids A high-throughput screen of multi-cell type tumor spheroids was designed to identify active combinations of targeted small molecules and PI3K pathway inhibitors. […] Compounds. […] If the clinical Cmax for an agent had not been determined, the highest concentration tested was 10 microM. […]
Write the value in % as a bare number.

compound | value type | obs value
CC(=O)c1c(C)c2cnc(Nc3ccc(N4CCNCC4)cn3)nc2n(C2CCCC2)c1=O + Cc1nc(NC(=O)N2CCCC2C(N)=O)sc1-c1ccnc(C(C)(C)C(F)(F)F)c1 | viability, T/C | 104
CC(C)n1nc(-c2ccc3oc(N)nc3c2)c2c(N)ncnc21 + CC(Nc1ccc2c(c1)OCCn1cc(N3C(=O)OCC3C(F)F)nc1-2)C(N)=O | viability, T/C | 93.1
CC(=O)c1c(C)c2cnc(Nc3ccc(N4CCNCC4)cn3)nc2n(C2CCCC2)c1=O + CC(Nc1ccc2c(c1)OCCn1cc(N3C(=O)OCC3C(F)F)nc1-2)C(N)=O | viability, T/C | 94.3
Cn1ncnc1[C@H]1c2n[nH]c(=O)c3cc(F)cc(c23)N[C@@H]1c1ccc(F)cc1 + COc1c(OCCCN2CCOCC2)ccc2c3n(c(=NC(=O)c4cnc(N)nc4)nc12)CCN3 | viability, T/C | 56.6
CC(C)n1nc(-c2ccc3oc(N)nc3c2)c2c(N)ncnc21 + COc1c(OCCCN2CCOCC2)ccc2c3n(c(=NC(=O)c4cnc(N)nc4)nc12)CCN3 | viability, T/C | 58.1

In the following, a different compound is considered.
viability, T/C measured on CC(=O)c1c(C)c2cnc(Nc3ccc(N4CCNCC4)cn3)nc2n(C2CCCC2)c1=O + CC(Nc1ncnc2nc[nH]c12)c1cc2cccc(Cl)c2c(=O)n1-c1ccccc1 = 107

###

# Test system: K98450-129-R-PDC multicell spheroids, viability
# procedure details: Anticancer human tumor K98450-129-R-PDC cell line growth inhibition [PI3K];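 further: spheroids exposed to agents for seven days before read-out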
# condition set: second compound 0.1 µM; first compound 3.16 µM; stronger effect = lower value
value type: viability, T/C (%)
Write the value in % as a bare number.

Examples from the recorded data:
compound | value type | obs value
C[C@@H](NC(=O)c1ncnc(N)c1Cl)c1ncc(C(=O)Nc2cc(C(F)(F)F)c(Cl)cn2)s1 + CC(Nc1ccc2c(c1)OCCn1cc(N3C(=O)OCC3C(F)F)nc1-2)C(N)=O | viability, T/C | 125
C=CC(=O)N1CCN(c2nc(=O)n(-c3c(C)ccnc3C(C)C)c3nc(-c4c(O)cccc4F)c(F)cc23)C(C)C1 (centres undefined) + COc1c(OCCCN2CCOCC2)ccc2c3n(c(=NC(=O)c4cnc(N)nc4)nc12)CCN3 | viability, T/C | 41.9
CC(Cn1ccc(-c2ccc(C#N)c(Cl)c2)n1)NC(=O)c1cc(C(C)O)[nH]n1 (centres undefined) + CC(Nc1ncnc2nc[nH]c12)c1cc2cccc(Cl)c2c(=O)n1-c1ccccc1 | viability, T/C | 98.5
Cn1nccc1Nc1nccc(-c2ccn(C(CO)c3ccc(Cl)c(F)c3)c(=O)c2)n1 (centres undefined) + CC(Nc1ncnc2nc[nH]c12)c1cc2cccc(Cl)c2c(=O)n1-c1ccccc1 | viability, T/C | 94.6
CC(C)NCC(C(=O)N1CCN(c2ncnc3c2C(C)CC3O)CC1)c1ccc(Cl)cc1 (centres undefined) + CC(Nc1ncnc2nc[nH]c12)c1cc2cccc(Cl)c2c(=O)n1-c1ccccc1 | viability, T/C | 94.9
CCCS(=O)(=O)Nc1ccc(F)c(C(=O)c2c[nH]c3ncc(-c4ccc(Cl)cc4)cc23)c1F + CC(Nc1ncnc2nc[nH]c12)c1cc2cccc(Cl)c2c(=O)n1-c1ccccc1 | viability, T/C | 109

viability, T/C measured on CNC(=O)c1ccc(N2C(=S)N(c3ccc(C#N)c(C(F)(F)F)c3)C(=O)C2(C)C)cc1F + Cc1nc(NC(=O)N2CCCC2C(N)=O)sc1-c1ccnc(C(C)(C)C(F)(F)F)c1 = 104

viability, T/C measured on Cn1ncc(Cl)c1-c1cc(C(=O)NC(CN)Cc2cccc(F)c2)sc1Cl (centres undefined) + COc1c(OCCCN2CCOCC2)ccc2c3n(c(=NC(=O)c4cnc(N)nc4)nc12)CCN3 = 69.5

viability, T/C measured on C=CC(=O)N1CCN(c2nc(=O)n(-c3c(C)ccnc3C(C)C)c3nc(-c4c(O)cccc4F)c(F)cc23)C(C)C1 (centres undefined) + CC(Nc1ncnc2nc[nH]c12)c1cc2cccc(Cl)c2c(=O)n1-c1ccccc1 = 52.4

###

# maps each entry to its IC50
# System: K98450-129-R-PDC multicell spheroids, viability
# procedure details: Anticancer human tumor K98450-129-R-PDC cell line growth inhibition [PI3K];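 further: spheroids exposed to agents for seven days before read-out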
# condition set: curve of first compound; second compound 1 µM

Examples from the recorded data:
compound | experimental target | value type | obs value
Cn1ncc(Cl)c1-c1cc(C(=O)NC(CN)Cc2cccc(F)c2)sc1Cl (stereo unspecified) + Cc1nc(NC(=O)N2CCCC2C(N)=O)sc1-c1ccnc(C(C)(C)C(F)(F)F)c1 | K98450-129-R-PDC multicell spheroids, viability | IC50 | > 10 µM
CC1(C)CCC(Nc2ncc(C(F)(F)F)c(-c3c[nH]c4c(P(C)(C)=O)c(C#N)ccc34)n2)CN1 (stereo unspecified) + CC(Nc1ncnc2nc[nH]c12)c1cc2cccc(Cl)c2c(=O)n1-c1ccccc1 | K98450-129-R-PDC multicell spheroids, viability | IC50 | 4.51 µM

IC50 measured on Cn1ncnc1[C@H]1c2n[nH]c(=O)c3cc(F)cc(c23)N[C@@H]1c1ccc(F)cc1 + COc1c(OCCCN2CCOCC2)ccc2c3n(c(=NC(=O)c4cnc(N)nc4)nc12)CCN3 = > 0.1 µM

IC50 measured on CC(C)NCC(C(=O)N1CCN(c2ncnc3c2C(C)CC3O)CC1)c1ccc(Cl)cc1 (stereo unspecified) + CC(Nc1ccc2c(c1)OCCn1cc(N3C(=O)OCC3C(F)F)nc1-2)C(N)=O = > 10 µM

IC50 measured on CC1(C)CCC(CN2CCN(c3ccc(C(=O)NS(=O)(=O)c4ccc(NCC5CCOCC5)c([N+](=O)[O-])c4)c(Oc4cnc5[nH]ccc5c4)c3)CC2)=C(c2ccc(Cl)cc2)C1 + COc1c(OCCCN2CCOCC2)ccc2c3n(c(=NC(=O)c4cnc(N)nc4)nc12)CCN3 = > 10 µM

IC50 measured on CC(C)n1nc(-c2ccc3oc(N)nc3c2)c2c(N)ncnc21 + CC(Nc1ccc2c(c1)OCCn1cc(N3C(=O)OCC3C(F)F)nc1-2)C(N)=O = > 0.1 µM

IC50 measured on C#Cc1c(F)ccc2cc(O)cc(-c3ncc4c(N5CC6CCC(C5)N6)nc(OCC56CCCN5CC(F)C6)nc4c3F)c12 (stereo unspecified) + Cc1nc(NC(=O)N2CCCC2C(N)=O)sc1-c1ccnc(C(C)(C)C(F)(F)F)c1 = > 10 µM

IC50 measured on Cn1ncc(Cl)c1-c1cc(C(=O)NC(CN)Cc2cccc(F)c2)sc1Cl (stereo unspecified) + COc1c(OCCCN2CCOCC2)ccc2c3n(c(=NC(=O)c4cnc(N)nc4)nc12)CCN3 = > 10 µM

IC50 measured on C[C@@H](NC(=O)c1ncnc(N)c1Cl)c1ncc(C(=O)Nc2cc(C(F)(F)F)c(Cl)cn2)s1 + Cc1nc(NC(=O)N2CCCC2C(N)=O)sc1-c1ccnc(C(C)(C)C(F)(F)F)c1 = > 10 µM

IC50 measured on CCCS(=O)(=O)Nc1ccc(F)c(C(=O)c2c[nH]c3ncc(-c4ccc(Cl)cc4)cc23)c1F + CC(Nc1ccc2c(c1)OCCn1cc(N3C(=O)OCC3C(F)F)nc1-2)C(N)=O = 5.78 µM

IC50 measured on CC(=O)c1c(C)c2cnc(Nc3ccc(N4CCNCC4)cn3)nc2n(C2CCCC2)c1=O + CC(Nc1ccc2c(c1)OCCn1cc(N3C(=O)OCC3C(F)F)nc1-2)C(N)=O = > 0.1 µM
